# Target or system: PI3K (Homo sapiens, UniProt P42336)
# Sequence (P42336 whole entry): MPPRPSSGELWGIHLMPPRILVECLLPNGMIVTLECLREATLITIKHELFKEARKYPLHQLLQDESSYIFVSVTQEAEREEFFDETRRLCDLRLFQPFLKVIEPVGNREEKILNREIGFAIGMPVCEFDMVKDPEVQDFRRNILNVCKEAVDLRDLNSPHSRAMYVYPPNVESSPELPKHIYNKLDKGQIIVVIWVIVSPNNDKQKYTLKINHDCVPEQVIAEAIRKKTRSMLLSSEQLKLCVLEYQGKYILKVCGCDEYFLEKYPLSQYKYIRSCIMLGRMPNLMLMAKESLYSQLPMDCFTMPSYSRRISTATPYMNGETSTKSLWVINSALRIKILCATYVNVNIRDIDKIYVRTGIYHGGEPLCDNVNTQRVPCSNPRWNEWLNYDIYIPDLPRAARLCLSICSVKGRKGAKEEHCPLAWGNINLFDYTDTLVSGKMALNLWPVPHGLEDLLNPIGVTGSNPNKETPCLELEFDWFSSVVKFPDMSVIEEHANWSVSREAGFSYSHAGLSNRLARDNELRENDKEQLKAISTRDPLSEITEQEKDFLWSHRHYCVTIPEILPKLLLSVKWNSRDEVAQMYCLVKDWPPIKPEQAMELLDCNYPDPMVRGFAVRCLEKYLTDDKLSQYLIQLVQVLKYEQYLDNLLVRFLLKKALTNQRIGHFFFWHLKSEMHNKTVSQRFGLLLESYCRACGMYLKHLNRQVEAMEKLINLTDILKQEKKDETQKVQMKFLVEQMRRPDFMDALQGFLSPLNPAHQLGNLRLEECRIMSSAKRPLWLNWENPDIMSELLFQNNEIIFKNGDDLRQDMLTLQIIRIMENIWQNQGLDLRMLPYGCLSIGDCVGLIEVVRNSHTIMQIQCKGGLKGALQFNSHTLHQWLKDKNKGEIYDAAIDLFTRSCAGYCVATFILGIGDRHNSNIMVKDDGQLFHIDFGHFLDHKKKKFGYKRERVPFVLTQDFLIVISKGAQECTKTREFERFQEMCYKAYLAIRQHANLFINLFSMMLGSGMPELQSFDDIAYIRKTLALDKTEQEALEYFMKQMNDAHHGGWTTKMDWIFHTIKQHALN
# Sequence (P27986 whole entry partner): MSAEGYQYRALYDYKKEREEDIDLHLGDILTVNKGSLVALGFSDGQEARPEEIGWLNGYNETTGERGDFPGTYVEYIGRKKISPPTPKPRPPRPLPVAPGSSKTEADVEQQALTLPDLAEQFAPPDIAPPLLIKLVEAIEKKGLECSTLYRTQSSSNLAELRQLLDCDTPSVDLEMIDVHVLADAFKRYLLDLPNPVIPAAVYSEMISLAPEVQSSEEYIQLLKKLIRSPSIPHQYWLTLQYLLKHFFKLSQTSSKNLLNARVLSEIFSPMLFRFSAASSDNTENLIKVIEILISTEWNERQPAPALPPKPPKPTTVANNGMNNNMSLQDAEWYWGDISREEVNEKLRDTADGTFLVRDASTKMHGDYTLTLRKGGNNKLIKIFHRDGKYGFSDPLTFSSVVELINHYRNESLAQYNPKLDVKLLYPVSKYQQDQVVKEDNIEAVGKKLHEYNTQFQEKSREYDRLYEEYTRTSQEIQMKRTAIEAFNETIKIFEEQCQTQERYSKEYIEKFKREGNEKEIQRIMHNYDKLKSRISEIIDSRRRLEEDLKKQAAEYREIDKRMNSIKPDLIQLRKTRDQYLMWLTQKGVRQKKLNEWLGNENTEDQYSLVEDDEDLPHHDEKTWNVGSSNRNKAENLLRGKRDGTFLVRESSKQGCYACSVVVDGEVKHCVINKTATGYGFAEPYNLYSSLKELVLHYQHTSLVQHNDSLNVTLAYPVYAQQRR
# Test protocol: Fluorescence polarization assay for PI3K;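 note: PI3K kinase reaction on PIP2 with ATP, 30-60 min, product sensed by GST-GRP with red probe in fluorescence polarization (mP), controls without enzyme and at zero time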
# Format: biochemical
# Details: PI3Kα; read-out: PI3Kα IC50
pIC50: −log10 of the molar value.

{"Compound": "CCCCNC(=O)Nc1ccc(-c2nc(N3CCOCC3)c3cnn(C4CCN(C(=O)c5cccnc5)CC4)c3n2)cc1", "pIC50": 6.35}
{"Compound": "Cc1ccc(C(=O)N2CCC(n3ncc4c(N5CCOCC5)nc(-c5ccc6[nH]ccc6c5)nc43)CC2)cn1", "pIC50": 5.68}
{"Compound": "O=C(Nc1ccc(-c2nc(N3CCOCC3)c3cn[nH]c3n2)cc1)c1cccnc1 [Compound 278]", "pIC50": 5.93}
{"Compound": "Oc1cccc(-c2nc(N3CCOCC3)c3cnn(C4CCNCC4)c3n2)c1", "pIC50": 7.44}
{"Compound": "O=C(Nc1ccccc1)Nc1ccc(-c2nc(N3CCOCC3)c3cnn(C4CCN(Cc5cccnc5)CC4)c3n2)cc1F [Example 351]", "pIC50": 7.39}
{"Compound": "CNC(=O)Nc1ccc(-c2nc(N3CCOCC3)c3cnn(C4CCN(Cc5cccc(O)c5)CC4)c3n2)cc1 [Example 397]", "pIC50": 7.55}
{"Compound": "NS(=O)(=O)c1cccc(-c2nc(N3CCOCC3)c3cnn(C4CCN(Cc5ccccc5)CC4)c3n2)c1", "pIC50": 5.62}
{"Compound": "CCCOC(=O)N1CCC(n2ncc3c(N4CCOCC4)nc(-c4ccc(NC(=O)NC)cc4)nc32)CC1", "pIC50": 6.97}
{"Compound": "COC(=O)Nc1ccc(-c2nc(N3CCOCC3)c3cnn(C4CCN(C(=O)N5CCN(C)CC5)CC4)c3n2)cc1 [Compound 448]", "pIC50": 6.14}
{"Compound": "COC(=O)Nc1ccc(-c2nc(N3CCOC(C)C3)c3cnn(C4CCN(C(=O)OC)CC4)c3n2)cc1 (stereo not drawn)", "pIC50": 5.45}
{"Compound": "CC(C)(C)OC(=O)N1CCC(n2ncc3c(N4CCOCC4)nc(-c4ccc(NC(=O)Nc5ccon5)cc4)nc32)CC1", "pIC50": 6.95}
{"Compound": "CC(=O)Nc1ccc(-c2nc(N3CCOCC3)c3cnn(C4CCCCO4)c3n2)cc1 (stereo not drawn) [Compound 224]", "pIC50": 5.78}
{"Compound": "COCOc1cncc(-c2nc(N3CCOCC3)c3cnn(C4CCN(Cc5ccccc5)CC4)c3n2)c1 [Compound 931]", "pIC50": 5.70}
{"Compound": "CCNC(=O)Nc1ccc(-c2nc(N3CCOCC3)c3cnn(C4CCN(CC(F)(F)F)CC4)c3n2)cc1", "pIC50": 6.12}
{"Compound": "NC(=O)Nc1ccc(-c2nc(N3CCOCC3)c3cnn(C4CCN(Cc5cccnc5)CC4)c3n2)cc1 [Compound 558]", "pIC50": 7.09}
